Each recorded value in this set is attributed to paper PMC5956019.

- Study Target: 6-AmHap-Abs
- Assay type: binding, mouse
- Recorded Conditions: read-out: Heterologous MST Ki
- Protocol: The final concentrations of 6-AmHap-Abs, MorHap-Cy5 in the capillaries were 10 nM and 0.25 nM, respectively. […] The MST measurements were done on a Monolith™ NT.115^Pico instrument from NanoTemper Technologies GmbH. The instrument was equipped with an IR laser (wavelength, 1475 ± 15 nm; power, 120 mW maximum) and a red fluorescence channel that can detect red dyes, such as Cy5 and Alexa Fluor 647. […]
Reported Metric: pKi
Give only the number. pKi is defined as minus log10 of concentration in molar units.

// lookup pKi for CN1CC[C@]23c4c5ccc(O)c4O[C@H]2CCC[C@H]3[C@H]1C5 [Desomorphine, desomorphine]
9.05

====

- Study Target: 6-AmHap-Abs
- Type: binding, mouse
- Recorded Conditions: 0.25 nM MorHap-Cy5, 10 nM antibody binding sites, without esterase inhibitors; […]; read-out: Heterologous MST Ki
Ki reference
Phrase the answer as number then unit, nothing more needed.

Recorded Ki of Oc1ccc2c3c1O[C@H]1[C@@H](O)C=C[C@H]4[C@@H](C2)NCC[C@@]341 , please.
55.1 nM

Which Ki is listed for C[N+]1([O-])CC[C@]23c4c5ccc(O)c4O[C@H]2[C@@H](O)C=C[C@H]3[C@H]1C5 (stereo partly drawn) [Morphine N-Oxide, morphine N-oxide] ?
6460 nM

Fill blank: measured Ki of the molecule CN1CC[C@]23CCCC[C@H]2[C@H]1Cc1ccc(O)cc13 is ____.
11.6 nM

====

- Study Target: Anti-morphine antibody (ab1060)
- Recorded Conditions: 0.25 nM MorHap-Cy5, 10 nM ab1060, 4000 nM competitor
- Protocol: The MST measurements were done on a Monolith™ NT.115^Pico instrument from NanoTemper Technologies GmbH. The instrument was equipped with an IR laser (wavelength, 1475 ± 15 nm; power, 120 mW maximum) and a red fluorescence channel that can detect red dyes, such as Cy5 and Alexa Fluor 647. The samples were measured at an LED power of 20% and an MST power of 25% with a laser-on time of 30 s and a laser-off time of 5 s. MST measurements of 15–16 samples typically take ~ 20 min. […]
Reported Metric: Ki
A complete answer gives the number followed by the unit.

State the recorded Ki for this entry: CN1CC[C@]23c4c5ccc(O)c4O[C@H]2[C@H](NC(=O)CCSCC(N)=O)C=C[C@H]3[C@H]1C5 [MorHap-acetamide]
14 nM

====

- Study Target: 6-AmHap-Abs
- Assay type: binding, mouse
- Recorded Conditions: 0.25 nM MorHap-Cy5, 10 nM antibody binding sites, without esterase inhibitors; […]; read-out: Heterologous MST Ki
Reported Metric: pKi
Scale: pKi equals -log10([C]), with [C] in mol/L.

Compound	Study Target	pKi
CN1CC[C@]23c4c5ccc(O)c4O[C@H]2C(=O)CC[C@@]3(O)[C@H]1C5	6-AmHap-Abs	6.60
C=CCN1CC[C@]23c4c5ccc(O)c4O[C@H]2[C@@H](O)C=C[C@H]3[C@H]1C5	6-AmHap-Abs	8.53
CN1CC[C@]23c4c5ccc(O)c4O[C@H]2[C@@H](O)C=C[C@H]3[C@H]1C5O (stereo partly drawn) [10-Hydroxymorphine, 10-hydroxymorphine]	6-AmHap-Abs	7.73
CN1CC[C@]23c4c5ccc(O)c4O[C@H]2[C@@H](O[C@@H]2O[C@H](C(=O)O)[C@@H](O)[C@H](O)[C@H]2O)C=C[C@H]3[C@H]1C5 [M-6G, morphine-6-β-glucuronide]	6-AmHap-Abs	9.18
COC1=CC=C2[C@H]3Cc4ccc(OC)c5c4[C@@]2(CCN3C)[C@H]1O5	6-AmHap-Abs	7.88

For the next question, use this compound.
Entry CN1CC[C@]23c4c5ccc(O[C@@H]6O[C@H](C(=O)O)[C@@H](O)[C@H](O)[C@H]6O)c4O[C@H]2[C@@H](O)C=C[C@H]3[C@H]1C5 [M-3G, morphine-3-β-glucuronide] has what pKi?
7.55
